tgt: HRP (Armoracia rusticana, UniProt P00433)
Sequence (P00433 31-353): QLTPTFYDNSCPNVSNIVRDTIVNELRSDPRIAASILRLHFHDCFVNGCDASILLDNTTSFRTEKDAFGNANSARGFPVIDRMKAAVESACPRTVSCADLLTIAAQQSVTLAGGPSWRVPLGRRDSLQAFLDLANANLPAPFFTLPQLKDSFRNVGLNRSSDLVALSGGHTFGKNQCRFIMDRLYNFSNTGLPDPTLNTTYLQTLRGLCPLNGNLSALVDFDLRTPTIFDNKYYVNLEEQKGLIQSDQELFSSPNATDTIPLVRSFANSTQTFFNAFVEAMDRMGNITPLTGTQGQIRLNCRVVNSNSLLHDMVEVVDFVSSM
experiment summary: H2O2 assay with HRP (HRP-EC50)
Type: biochemical, horseradish
condition label: Tables S2, S3; read-out: HRP-EC50
Give EC50 for every item shown.
Report as a plain number; the unit nM is understood.

Challenge: Indicate its recorded EC50; the molecule in question is CNc1ccc(NCCc2cccc(C(F)(F)F)c2)cc1
Response given: 378

Challenge: Quickly give me recorded EC50 for CNc1ccc(NCCc2ccc(OC)cc2)cc1
Response given: 790

Challenge: Let me know recorded EC50 for CNc1ccc(NCCc2cccc(OC)c2)cc1 , thanks.
Response given: 516

Challenge: State, in one line, measured EC50 of O=C(O)c1ccc(NCCc2ccc(C(F)(F)F)cc2)cc1
Response given: 22100

Challenge: Note down EC50 recorded for CNc1ccc(NCCc2ccccc2OC)cc1.Cl
Response given: 529

Challenge: Note down EC50 recorded for CNc1ccc(NCCc2ccccc2)cc1
Response given: 897

These data points were gathered from paper PMC12373846.
